pIC50: −log10 of the molar value.
Kindly find below pIC50 information for Methionine aminopeptidase 2 (Homo sapiens) taken from the literature.

# molecularString, result
measured = [
    ("O=C(c1cc2cc(N3CC[C@](O)(C(=O)NCc4cc(F)cc(Cl)c4)C3=O)ccc2[nH]1)N1CCOCC1", "6.00 to 8.00"),
    ("O=C(NCc1cccc(Br)c1)[C@]1(O)CCN(c2ccc(Br)cc2)C1=O", "< 5.00"),
    ("C/C=C/C(=O)[C@@]1(O)CCN(c2ccccc2)C1=O", "< 5.00"),
    ("CCNC(=O)Nc1ccc2cccc(OC[C@H]3CCCN3c3ncnc4[nH]cnc34)c2c1", "5.00 to 6.00"),
]

Now turn to the next compound.
Challenge: Provide value of pIC50 for this record tested with Methionine aminopeptidase 2 (Homo sapiens): `CC(=O)N1CCN(c2ccc3cccc(OC[C@H]4CCCN4c4ncnc5[nH]cnc45)c3c2)CC1`
Response given: 6.00 to 8.00

----------
Literature-derived IC50 for UniProt P50579 follows.
Sequence (P50579 whole entry, species assumed): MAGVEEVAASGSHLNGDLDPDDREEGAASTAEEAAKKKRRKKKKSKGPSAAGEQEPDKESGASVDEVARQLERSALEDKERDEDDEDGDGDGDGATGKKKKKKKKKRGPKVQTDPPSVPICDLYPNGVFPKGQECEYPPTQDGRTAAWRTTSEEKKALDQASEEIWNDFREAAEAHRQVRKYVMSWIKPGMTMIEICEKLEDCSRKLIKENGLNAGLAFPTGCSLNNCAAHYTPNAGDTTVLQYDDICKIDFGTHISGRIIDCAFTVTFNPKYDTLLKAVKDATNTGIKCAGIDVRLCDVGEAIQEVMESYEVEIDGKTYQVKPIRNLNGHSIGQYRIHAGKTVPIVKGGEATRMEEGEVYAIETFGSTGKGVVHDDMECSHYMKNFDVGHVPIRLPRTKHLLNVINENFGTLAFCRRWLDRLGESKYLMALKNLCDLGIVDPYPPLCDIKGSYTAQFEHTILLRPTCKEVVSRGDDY

Answered examples (3):
# molecule, IC50
records = [
    ("CC(C)(C)OC(=O)N[C@H](CC(N)=O)C(=O)N1CCc2cccc(OC[C@H]3CCCN3c3ccnc4ncnn34)c2C1", "10 to 1000 nM"),
    ("N#CCn1cc(N2CCC(O)(C(=O)NCc3cc(F)cc(Cl)c3)C2=O)cn1 (stereo not drawn)", "10 to 1000 nM"),
    ("NC(=O)C[C@@H](N)C(=O)N1CCc2cccc(OC[C@H]3CCCN3c3ncnc4[nH]cnc34)c2C1", "10 to 1000 nM"),
]

Challenge: Find the recorded IC50 belonging to O=C1N(c2ccccc2)CCC1(O)CNCCc1ccc(F)cc1 (stereo not drawn) and report it.
Response given: 1000 to 10000 nM

Challenge: For the molecule shown here, `Cc1nnc(CCNC(=O)[C@@]2(O)CCN(c3ccccc3)C2=O)s1` , give the reported IC50.
Response given: > 10000 nM

Challenge: Any idea what its IC50 is? The molecule is `O=C1N(c2ccccc2)CC[C@@]1(O)CNCc1cc(F)cc(Cl)c1`
Response given: 1000 to 10000 nM

Challenge: Need IC50, item `N#Cc1c[nH]c2ccc(N3CC[C@@](O)(C(=O)NCc4cc(F)cc(Cl)c4)C3=O)cc12`
Response given: 1000 to 10000 nM

Challenge: Which IC50 is reported for this molecule? CC(C)CCNC(=O)C1(O)CCN(c2ccccc2)C1=O (stereo not drawn)
Response given: 10 to 1000 nM

Challenge: Given `O=C(NCc1ccc(F)cc1)c1cc(OC[C@H]2CCCN2c2ccnc3ncnn23)c2ccccc2n1` , state its recorded IC50.
Response given: 10 to 1000 nM

----------
Record: compiled IC50 on Methionine aminopeptidase 2 (Homo sapiens) from multiple reports.

Recorded IC50, per entry:
# molecule, IC50
records = [
    ("O=C(NCCc1cc(F)cc(Cl)c1)[C@@]1(O)CCN(c2ccc3[nH]ncc3c2)C1=O", "10 to 1000 nM"),
    ("O=C1N(c2ccccc2)CCC1(O)CNCc1cc(F)cc(Cl)c1 (centres unmarked)", "10 to 1000 nM"),
]

Challenge: Recorded IC50 of `OC[C@H]1CCCN1c1ccnc2ncnn12` , please.
Response given: 10 to 1000 nM

Challenge: # IC50 lookup, item `O=C(NCc1cc(F)cc(Cl)c1)[C@@]1(O)CCN(c2cc(C(F)(F)F)ccc2F)C1=O`
Response given: 10 to 1000 nM

Challenge: Return reported IC50; argument: CCCC(C)NC(=O)[C@@]1(O)CCN(c2ccccc2)C1=O (some centres unmarked)
Response given: 1000 to 10000 nM

Challenge: Quick one: IC50 of `CN(C)CCNC(=O)[C@@]1(O)CCN(c2ccccc2)C1=O` ?
Response given: > 10000 nM

Challenge: # input molecule: `COc1cccc(COC[C@H]2CCCN2c2ccnc3ncnn23)c1` ; wanted: its IC50
Response given: 10 to 1000 nM
